Source: patent US8309577B2

Answer each item with its documented EC50.
# Assayed Target: α-7 nicotinic acetylcholine receptor channel expressed in HEK 293 cells (Rattus norvegicus)
# Construct: expressed in transfected cells
# Sequence (Q05941 23-502): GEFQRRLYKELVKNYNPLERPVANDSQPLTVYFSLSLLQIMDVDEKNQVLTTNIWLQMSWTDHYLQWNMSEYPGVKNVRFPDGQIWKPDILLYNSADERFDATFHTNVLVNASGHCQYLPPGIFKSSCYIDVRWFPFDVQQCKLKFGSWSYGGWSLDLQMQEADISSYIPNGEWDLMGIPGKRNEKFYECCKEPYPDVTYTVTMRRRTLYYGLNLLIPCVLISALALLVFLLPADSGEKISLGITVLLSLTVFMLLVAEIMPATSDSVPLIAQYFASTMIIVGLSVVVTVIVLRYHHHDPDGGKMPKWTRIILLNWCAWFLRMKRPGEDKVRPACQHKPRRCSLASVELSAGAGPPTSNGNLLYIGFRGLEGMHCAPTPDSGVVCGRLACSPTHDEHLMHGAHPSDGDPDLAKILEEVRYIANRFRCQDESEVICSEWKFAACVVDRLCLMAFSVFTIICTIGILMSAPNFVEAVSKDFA
# Assay Summary: Ca2+-sensitive fluorescence-based FLIPR assay, α7 nicotinic ACh receptor channel function (agonist)
# Type: cell-based
Numbers only, in µM.

Would you be so kind as to report EC50 for each listed record?
1. c1cncc(/N=C2\NCC3(CN4CCC3CC4)O2)c1 (racemic) [Example 18]
2. COc1cc2cnc(NC3=NC[C@@]4(CN5CCC4CC5)O3)cc2cc1OC [Example 342]
3. O=C(c1ccc2nc(NC3=NCC4(CN5CCC4CC5)O3)sc2c1)N1CCCC1 (stereo not drawn) [Example 3]
4. c1cc2nc(NC3=NCC4(CN5CCC4CC5)O3)sc2cc1N1CCOCC1 (stereo not drawn) [Example 46]

# output
3.93
1.6
3.84
2

Would you be so kind as to report EC50 for each listed record?
1. Fc1ccc(-c2nnc(NC3=NCC4(CN5CCC4CC5)O3)s2)cc1 (stereo not drawn) [Example 59]
2. FC(F)(F)Oc1ccc2nc(NC3=NCC4(CN5CCC4CC5)O3)sc2c1 (stereo not drawn) [Example 49]
3. c1ccc(-c2cncc(NC3=NC[C@@]4(CN5CCC4CC5)O3)c2)cc1 [Example 28]
4. CN(C)C(=O)c1ccc2nc(NC3=NCC4(CN5CCC4CC5)O3)sc2c1 (stereo not drawn) [Example 57]
5. c1coc(-c2nnc(NC3=NCC4(CN5CCC4CC5)O3)s2)c1 (stereo not drawn) [Example 60]
6. c1ccc2ncc(NC3=NCC4(CN5CCC4CC5)O3)cc2c1 (stereo not drawn) [Example 73]
7. Cc1nc2cc(NC3=NCC4(CN5CCC4CC5)O3)ccc2s1 (stereo not drawn) [Example 63]

# output
4.24
3.33
4.01
3.9
2.55
7.55
2.6

# input Supply recorded EC50 for O=C1CCCN1c1cnc(NC2=NC[C@@]3(CN4CCC3CC4)O2)cn1 [Example 35] here.
# output 4.03
